The values you see were collected from patent US9480261B1.

Tested on: TBSB-09
assay-info: Antibiotic susceptibility, disk method on L-agar; also: key: R—Resistant; I—Intermediate; S—Susceptible
Format: cell-based
measurement-setup: 25° C.
reported-property: Antibiotic resistance of strain TBSB-09

O=C(N[C@H](CO)[C@H](O)c1ccc([N+](=O)[O-])cc1)C(Cl)Cl = S
CC1(C)S[C@@H]2[C@H](NC(=O)[C@H](N)c3ccccc3)C(=O)N2[C@H]1C(=O)O = R
CN[C@H](CC(C)C)C(=O)N[C@H]1C(=O)N[C@@H](CC(N)=O)C(=O)N[C@H]2C(=O)N[C@H]3C(=O)N[C@H](C(=O)N[C@H](C(=O)O)c4cc(O)cc(O)c4-c4cc3ccc4O)[C@H](O)c3ccc(c(Cl)c3)Oc3cc2cc(c3O[C@@H]2O[C@H](CO)[C@@H](O)[C@H](O)[C@H]2O[C@H]2C[C@](C)(N)[C@H](O)[C@H](C)O2)Oc2ccc(cc2Cl)[C@H]1O = R
NC[C@H]1O[C@H](O[C@H]2[C@H](O)[C@@H](O[C@H]3O[C@H](CO)[C@@H](O)[C@H](N)[C@H]3O)[C@H](N)C[C@@H]2N)[C@H](O)[C@@H](O)[C@@H]1O = S
CN(C)[C@@H]1C(O)=C(C(N)=O)C(=O)[C@@]2(O)C(O)=C3C(=O)c4c(O)cccc4[C@@](C)(O)[C@H]3C[C@@H]12 = R

**Q:** Reported Antibiotic resistance of strain TBSB-09 for CC[C@H]1OC(=O)[C@H](C)[C@@H](O[C@H]2C[C@@](C)(OC)[C@@H](O)[C@H](C)O2)[C@H](C)[C@@H](O[C@@H]2O[C@H](C)C[C@H](N(C)C)[C@H]2O)[C@](C)(O)C[C@@H](C)C(=O)[C@H](C)[C@@H](O)[C@]1(C)O : what is it?
**A:** R
